Molecular target: T1, 4H754-bN
T1 chain: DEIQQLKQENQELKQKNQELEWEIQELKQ
Experiment: two-hybrid library CCNG1;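 also: natural log of median RNA to DNA barcode read ratio; higher means stronger binding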
readout_label: interaction score

> print(dat)
                                     binder      readout.label  endpoint.result
1  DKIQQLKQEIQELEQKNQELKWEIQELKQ [4H2618-bN]  interaction score            -0.67
2  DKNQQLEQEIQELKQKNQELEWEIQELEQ [4H3185-bN]  interaction score           -0.979
3  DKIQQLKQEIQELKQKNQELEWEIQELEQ [4H2673-bN]  interaction score            -1.07
4  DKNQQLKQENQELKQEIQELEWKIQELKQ [4H3782-bN]  interaction score            0.109
5  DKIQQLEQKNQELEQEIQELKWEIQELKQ [4H2442-bN]  interaction score            -0.65

I = DEIQQLKQENQELEQKIQELKWENQELEQ [4H683-bN]
II = DEIQQLKQENQELKQEIQELKWKIQELEQ [4H717-bN]
III = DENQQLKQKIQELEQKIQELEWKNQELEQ [4H1831-bN]
Query :: Ascending by interaction score, please. Reply format: the labels, ordered as requested.
Result :: I, II, III
(I: -1.46, II: -0.997, III: -0.46)

P = DEIQQLEQKNQELKQEIQELKWEIQELEQ [4H457-bN]
Q = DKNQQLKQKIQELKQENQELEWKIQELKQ [4H3926-bN]
R = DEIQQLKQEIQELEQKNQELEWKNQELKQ [4H568-bN]
S = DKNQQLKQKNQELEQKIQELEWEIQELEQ [4H4001-bN]
T = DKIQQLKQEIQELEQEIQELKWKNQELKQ [4H2576-bN]
Query :: Sort the 5 binders by interaction score; largest first, smallest last. Respond with an ordered listing of the labels, as requested.
Result :: T, R, P, Q, S
(T: 0.456, R: 0.0731, P: -0.487, Q: -0.867, S: -1.75)

1 = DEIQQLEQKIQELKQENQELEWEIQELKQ [4H338-bN]
2 = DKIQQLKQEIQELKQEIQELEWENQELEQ [4H2627-bN]
3 = DEIQQLKQEIQELEQKNQELKWKNQELEQ [4H575-bN]
4 = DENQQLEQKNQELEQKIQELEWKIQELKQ [4H1446-bN]
Query :: Hey, quick one: sort these by interaction score, largest value first please. Please, when replying, give the labels in the order that was requested.
Result :: 4, 1, 2, 3
(4: -0.286, 1: -0.701, 2: -1.21, 3: -2.08)

a = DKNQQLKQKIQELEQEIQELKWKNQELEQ [4H3855-bN]
b = DEIQQLEQEIQELKQEIQELEWKNQELKQ [4H72-bN]
Query :: Which value of interaction score is numerically greater: that of a or that of b ? Write the label of whichever entry you select.
Result :: a
(a: -0.585, b: -1.48)
